Provenance of the data: patent US20160002204A1

Here, each record is paired with measured IC50 data.
# target: GLS1 (purified recombinant human GAC) (Homo sapiens, UniProt O94925)
# Sequence (O94925 55-598 isoform O94925-3 limits assumed): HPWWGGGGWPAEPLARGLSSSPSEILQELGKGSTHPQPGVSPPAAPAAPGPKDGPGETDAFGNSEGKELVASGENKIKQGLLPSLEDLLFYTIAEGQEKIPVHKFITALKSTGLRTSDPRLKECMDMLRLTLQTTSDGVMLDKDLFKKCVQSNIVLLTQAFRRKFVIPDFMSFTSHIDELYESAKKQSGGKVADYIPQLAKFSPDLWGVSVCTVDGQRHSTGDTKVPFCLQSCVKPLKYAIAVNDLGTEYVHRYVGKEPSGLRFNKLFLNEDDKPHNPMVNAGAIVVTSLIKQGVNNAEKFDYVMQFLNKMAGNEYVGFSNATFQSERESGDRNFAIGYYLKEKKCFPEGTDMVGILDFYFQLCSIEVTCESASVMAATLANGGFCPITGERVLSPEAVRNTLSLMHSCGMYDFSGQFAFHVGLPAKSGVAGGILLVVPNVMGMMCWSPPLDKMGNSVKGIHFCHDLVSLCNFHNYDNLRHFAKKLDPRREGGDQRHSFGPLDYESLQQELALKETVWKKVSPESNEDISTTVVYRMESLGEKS
# method-summary: GLS1 enzymatic activity assay (dual-coupled, Amplex UltraRed/resorufin)
measure: IC50

>>> print(df.to_string())
                                    compound  measure          result
 0  CCOC(=O)N1CCN(CC(=O)Nc2ccn(CCC(F)Cn3cc(C(=O)NCc4cccc(OC(F)(F)F)c4)nn3)c(=O)c2F)CC1 (stereo not drawn)     IC50        < 100 nM
 1  COC(=O)Nc1ccn(CCCCc2ccc(NC(=O)Cc3ccccc3)nn2)c(=O)n1     IC50   100 to 500 nM
 2  O=C(Cc1ccccc1)Nc1ccc(CCCCn2ccc(NC(=O)Oc3ccccc3)nc2=O)nn1     IC50   100 to 500 nM
 3  CN1CCN(CC(=O)Nc2ccn(CCC(F)Cn3cc(C(=O)NCc4cccc(OC(F)(F)F)c4)nn3)c(=O)c2)CC1 (stereo not drawn)     IC50   100 to 500 nM
 4  CC(C(=O)Nc1ccn(CCC(F)Cn2cc(C(=O)NCc3cccc(OC(F)(F)F)c3)nn2)c(=O)c1F)N1CCCCC1 (stereo not drawn)     IC50        < 100 nM
 5  O=C(Nc1ccn(CCC(F)Cn2cc(C(=O)NCc3cccc(OC(F)(F)F)c3)nn2)c(=O)c1F)C(=O)N1CCOCC1 (stereo not drawn)     IC50   100 to 500 nM
 6  O=C(Nc1ccn(CCC(F)Cn2cc(C(=O)NCc3cccc(OC(F)(F)F)c3)nn2)c(=O)n1)OC1CCC(F)(F)CC1 (stereo not drawn)     IC50        < 100 nM
 7  O=C(Cc1cccnc1)Nc1ccn(CCC(F)Cn2cc(C(=O)NCc3cccc(OC(F)(F)F)c3)nn2)c(=O)c1 (stereo not drawn)     IC50        < 100 nM
 8  CS(=O)(=O)c1ccc(CNC(=O)c2cn(CCCCn3ccc(NC(=O)Cc4cccc(OC(F)(F)F)c4)cc3=O)nn2)cc1     IC50        < 100 nM
 9  CC(C)COC(=O)Nc1ccn(CCCCc2ccc(NC(=O)Cc3ccccc3)nn2)c(=O)n1     IC50        < 100 nM
10  O=C(Nc1ccn(CCC(F)Cn2cc(C(=O)NCc3cc(OC(F)(F)F)ccc3F)nn2)c(=O)c1F)C(=O)N1CCC[C@H](C(F)(F)F)C1 (mixture of isomers)     IC50        < 100 nM
11  N#Cc1cccc(CC(=O)Nc2ccn(CCC(F)Cn3cc(C(=O)NCc4cccc(OC(F)(F)F)c4)nn3)c(=O)c2)c1 (stereo not drawn)     IC50        < 100 nM
12  O=C(CC1CCSCC1)Nc1ccn(CCCCn2cc(C(=O)NCc3cccc(OC(F)(F)F)c3)nn2)c(=O)c1     IC50        < 100 nM
13  O=C(Cc1ccccc1)Nc1ccn(CC(F)CCn2cc(C(=O)NCc3cc(OC(F)(F)F)ccc3F)nn2)c(=O)c1 (stereo not drawn)     IC50        < 100 nM
14  O=C(Cc1ccccn1)Nc1ccn(CCCCc2nnc(C(=O)NCc3cccc(OC(F)(F)F)c3)s2)c(=O)c1     IC50        < 100 nM
15  O=C(CC1CCCCO1)Nc1ccn(CCCCn2cc(C(=O)NCc3cccc(OC(F)(F)F)c3)nn2)c(=O)c1 (stereo not drawn)     IC50        < 100 nM
16  O=C(CN1CCCCC1)Nc1ccn(CCC(F)Cn2cc(C(=O)NCc3cncc(C(F)(F)F)c3)nn2)c(=O)c1F (stereo not drawn)     IC50        < 100 nM
17  CNC(=O)c1cn(CCCCn2ccc(NC(=O)Cc3cccc(OC(F)(F)F)c3)cc2=O)nn1     IC50   100 to 500 nM
18  O=C(CC1CCCCC1)Nc1ccn(CCC(F)Cn2cc(C(=O)NCc3ccccn3)nn2)c(=O)c1F (stereo not drawn)     IC50        < 100 nM
19  COCC1CCN(CC(=O)Nc2ccn(CCC(F)Cn3cc(C(=O)NCc4cccc(OC(F)(F)F)c4)nn3)c(=O)c2)CC1 (stereo not drawn)     IC50        < 100 nM
20  O=C(Cc1ccccc1)Nc1ccn(CCCCCn2ccc(NC(=O)Cc3ccccc3)nc2=O)c(=O)n1     IC50  500 to 5000 nM

* * *

Here, each record is paired with measured IC50 data.
# target: GLS1 (purified recombinant human GAC) (Homo sapiens, UniProt O94925)
# method-summary: GLS1 enzymatic activity assay (dual-coupled, Amplex UltraRed/resorufin)
measure: IC50

In [3]: df
Out[3]:
                                   molecule         result
0  O=C(Nc1ccn(CCCCc2nnc(C(=O)NCc3cccc(OC(F)(F)F)c3)s2)c(=O)n1)OCc1ccccc1 [Example 28]       < 100 nM
1  O=C(Cc1cccc(OC(F)(F)F)c1)Nc1ccn(CCCCn2ccc(NC(=O)Cc3cccc(OC(F)(F)F)c3)nc2=O)c(=O)n1 [Example 91]       < 100 nM
2  CC(C)(C)OC(=O)Nc1ccn(CCC(F)Cn2cc(C(=O)NCc3cccc(C(F)(F)F)n3)nn2)c(=O)c1F (stereo not shown) [Example 319]  100 to 500 nM
3  O=C(NCc1cccc(OC(F)(F)F)c1)c1cn(CC(F)CCn2ccc(NC(=O)[C@H](O)c3ccccc3)cc2=O)nn1 (stereo partly shown) [Example 223]       < 100 nM

* * *

Here, each record is paired with measured pIC50 data.
# target: GLS1 (purified recombinant human GAC) (Homo sapiens)
# method-summary: GLS1 enzymatic activity assay (dual-coupled, Amplex UltraRed/resorufin)
pIC50: −log10 of the molar value.
measure: pIC50

In [3]: df
Out[3]:
                                   compound  measure        result
0  COC1CCC(CC(=O)Nc2ccn(CCCCn3cc(C(=O)NCc4cccc(OC(F)(F)F)c4)nn3)c(=O)c2)CC1 (centres unmarked)    pIC50        > 7.00
1  O=C(Cc1cccc(OC(F)(F)F)c1)Nc1ccn(CCCCc2nnc(NC(=O)Cc3cccnc3)s2)c(=O)n1    pIC50        > 7.00
2  O=C(Cc1cccc(OC(F)(F)F)c1)Nc1ccc(CCCCn2ccc(NC(=O)Cc3cccnc3)nc2=O)nn1    pIC50        > 7.00
3  CC(C)NC(=O)Nc1ccn(CCCCc2ccc(NC(=O)Cc3ccccc3)nn2)c(=O)n1    pIC50  5.30 to 6.30
4  CC(=O)N1CCC(CC(=O)Nc2ccn(CCC(F)Cn3cc(C(=O)NCc4cccc(OC(F)(F)F)c4)nn3)c(=O)c2)CC1 (centres unmarked)    pIC50        > 7.00
5  O=C(Nc1ccn(CCC(F)Cn2cc(C(=O)NCc3cncc(C(F)(F)F)c3)nn2)c(=O)c1F)OC1CCC1 (centres unmarked)    pIC50        > 7.00
6  Nc1ccn(CCC(F)Cn2cc(C(=O)NCc3cc(OC(F)(F)F)ccc3F)nn2)c(=O)c1F (centres unmarked)    pIC50  5.30 to 6.30
7  C[C@@H]1CCN(C(=O)C(=O)Nc2ccn(CCC(F)Cn3cc(C(=O)NCc4cc(OC(F)(F)F)ccc4F)nn3)c(=O)c2F)C1 (some centres unmarked)    pIC50        > 7.00

* * *

# target: GLS1 (purified recombinant human GAC) (Homo sapiens)
# method-summary: GLS1 enzymatic activity assay (dual-coupled, Amplex UltraRed/resorufin)
# Format: biochemical
pIC50: −log10 of the molar value.
Here, each record is paired with measured pIC50 data.
measure: pIC50

                                    compound                                    target        result
 0  O=C(NCc1cc(C(F)(F)F)ccn1)c1cn(CC(F)CCn2ccc(Cn3ccccc3=O)cc2=O)nn1 (stereo not drawn)  GLS1 (purified recombinant human GAC) (Homo sapiens)  5.30 to 6.30
 1  Cc1ccc(CNC(=O)c2cn(CC(F)CCn3ccc(NC(=O)CC4CCC4)c(F)c3=O)nn2)cn1 (stereo not drawn)  GLS1 (purified recombinant human GAC) (Homo sapiens)        > 7.00
 2  O=C(Cc1ccccc1)Nc1ccn(CCC(F)Cn2cc(C(=O)NCc3ncccc3F)nn2)c(=O)c1 (stereo not drawn)  GLS1 (purified recombinant human GAC) (Homo sapiens)  6.30 to 7.00
 3  CC(C)(C)OC(=O)N1CCCC(CC(=O)Nc2ccn(CCC(F)Cn3cc(C(=O)NCc4cccc(OC(F)(F)F)c4)nn3)c(=O)c2)C1 (stereo not drawn)  GLS1 (purified recombinant human GAC) (Homo sapiens)        > 7.00
 4  CC(C)(C)OC(=O)N1CCC(CC(=O)Nc2ccn(CCCCn3cc(C(=O)NCc4cccc(OC(F)(F)F)c4)nn3)c(=O)c2)CC1  GLS1 (purified recombinant human GAC) (Homo sapiens)        > 7.00
 5  CC(C)(C)OC(=O)N[C@H]1CC[C@H](CC(=O)Nc2ccn(CCC(F)Cn3cc(C(=O)NCc4cccc(OC(F)(F)F)c4)nn3)c(=O)c2)CC1 (stereo partly drawn)  GLS1 (purified recombinant human GAC) (Homo sapiens)        > 7.00
 6  CS(=O)(=O)N1CCC(CC(=O)Nc2ccn(CCC(F)Cn3cc(C(=O)NCc4cccc(OC(F)(F)F)c4)nn3)c(=O)c2F)CC1 (stereo not drawn)  GLS1 (purified recombinant human GAC) (Homo sapiens)        > 7.00
 7  O=C(Cc1ccccc1)Nc1ccn(CCCCn2cc(C(=O)NCc3ccccn3)nn2)c(=O)c1  GLS1 (purified recombinant human GAC) (Homo sapiens)  6.30 to 7.00
 8  O=C(Cc1ccccc1)Nc1ccc(CCCCn2ccc(NC(=O)Cc3cccc(OC(F)(F)F)c3)nc2=O)nn1  GLS1 (purified recombinant human GAC) (Homo sapiens)        > 7.00
 9  O=C(NCc1ccccn1)c1ccn(CCCCn2cc(C(=O)NCc3cccc(OC(F)(F)F)c3)nn2)c(=O)c1  GLS1 (purified recombinant human GAC) (Homo sapiens)  6.30 to 7.00
10  Cc1ccc(CNC(=O)c2cn(CC(F)CCn3ccc(NC(=O)CC4CCCCC4)c(F)c3=O)nn2)cn1 (stereo not drawn)  GLS1 (purified recombinant human GAC) (Homo sapiens)        > 7.00
11  O=C(NCc1cc(C(F)(F)F)ccn1)c1cn(CC(F)CCn2ccc(COc3cccc(OC(F)(F)F)c3)cc2=O)nn1 (stereo not drawn)  GLS1 (purified recombinant human GAC) (Homo sapiens)        > 7.00
12  CC(C)(C)OC(=O)Nc1ccn(CCC(F)Cn2cc(C(=O)NCc3cncc(C(F)(F)F)c3)nn2)c(=O)c1F (stereo not drawn)  GLS1 (purified recombinant human GAC) (Homo sapiens)        > 7.00
13  O=C(Cc1cccc(OC(F)(F)F)c1)Nc1ccn(CCCCn2cc(C(=O)NCC3CCCCC3)nn2)c(=O)c1  GLS1 (purified recombinant human GAC) (Homo sapiens)        > 7.00
14  O=C(CC1CCCC1)Nc1ccn(CCC(F)Cn2cc(C(=O)NCc3ccc(C(F)(F)F)cn3)nn2)c(=O)c1F (stereo not drawn)  GLS1 (purified recombinant human GAC) (Homo sapiens)        > 7.00
15  O=C(CC1CCCCC1)Nc1ccn(CCCCn2cc(C(=O)NCc3ccccn3)nn2)c(=O)c1  GLS1 (purified recombinant human GAC) (Homo sapiens)        > 7.00
16  O=C(CC1CCCC1)Nc1ccn(CCC(F)Cn2cc(C(=O)NCc3ccccn3)nn2)c(=O)c1F (stereo not drawn)  GLS1 (purified recombinant human GAC) (Homo sapiens)        > 7.00
17  COc1ccc(CNC(=O)c2ccn(CCCCn3cc(C(=O)NCc4cccc(OC(F)(F)F)c4)nn3)c(=O)c2)c(OC)c1  GLS1 (purified recombinant human GAC) (Homo sapiens)  6.30 to 7.00
